Provenance of the data: patent EP4755449A2

- STUDY SYSTEM: T1, cynomolgus monkey latent myostatin (cynomolgus monkey, UniProt Q95J86 25-266; Q95J86 267-375, limits assumed)
- T1 construct: also called cyno latent myostatin
- T1 sequence 1: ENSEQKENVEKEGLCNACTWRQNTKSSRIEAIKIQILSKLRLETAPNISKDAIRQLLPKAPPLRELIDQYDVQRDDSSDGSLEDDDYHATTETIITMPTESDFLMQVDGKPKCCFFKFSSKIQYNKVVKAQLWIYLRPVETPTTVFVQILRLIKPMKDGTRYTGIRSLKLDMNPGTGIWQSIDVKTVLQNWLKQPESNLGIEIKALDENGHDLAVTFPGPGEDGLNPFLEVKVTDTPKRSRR
- T1 sequence 2: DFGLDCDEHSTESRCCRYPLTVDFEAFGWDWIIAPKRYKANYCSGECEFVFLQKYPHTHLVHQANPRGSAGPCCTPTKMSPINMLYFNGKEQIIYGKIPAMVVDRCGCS
- MEASUREMENT PROTOCOL: SPR 37C pH5.8; pH 5.8
READOUT: pKd
Scale note: pKd = -log10(concentration in M).

Use these answered entries as a reference point.
BINDER	pKd
MS_M103205H795-SG1/M103202L1060-SK1 (antibody, human IgG1, kappa, V domains shown, also called MS1032LO24-SG1) VH: QVTLKESGPVLVKPTETLTLTCTVSGIDLSHDDISWVRQAPGKGLEWVGIISYAGSTYYASWAKGRLTISKDTSKNQVVLTMTNMDPVDTATYYCARGVPAYSHGGDLWGQGTLVTVSS VL: DIVMTQSPATLSLSPGERATLSCTSSQSVFHENWLSWFQQKPGQPPKLLIYWASTLAWGVPSRFSGSGSGTDFTLTISSLQPEDAATYYCAGGYGGGRYAFGQGTKVEIKR	9.03
MS_M103205H1004-SG1/M103202L889-SK1 (antibody, human IgG1, kappa, V domains shown, also called MS1032LO07-SG1) VH: QVTLKESGPVLVKPTETLTLTCTVSGIDLSHDDISWVRQAPGKGLEWVGIISYAGSMYYASWAKGRLTISKDTSKNQVVLTMTNMDPVDTATYYCARGVPAYSHGGDKWGQGTLVTVSS VL: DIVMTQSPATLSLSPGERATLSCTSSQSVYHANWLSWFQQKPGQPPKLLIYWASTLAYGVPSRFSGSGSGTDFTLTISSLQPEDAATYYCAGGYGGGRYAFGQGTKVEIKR	7.46

Consider MS_M103205H1046-SG1/M103202L889-SK1 (antibody, human IgG1, kappa, V domains shown, also called MS1032LO10-SG1) VH: QVTLKESGPVLVKPTETLTLTCTVSGIDLSHTDISWVRQAPGKGLEWVGIISYAGKTYYASWAKKRLTISKDTSKNQVVLTMTNMDPVDTATYYCARGVPAYSHGGDLWGQGTLVTVSS VL: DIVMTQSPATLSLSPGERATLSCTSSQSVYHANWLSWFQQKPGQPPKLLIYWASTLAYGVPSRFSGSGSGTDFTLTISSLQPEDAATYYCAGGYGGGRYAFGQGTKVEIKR . Its measured pKd is 7.79
